System: human sebocytes
experimental.details: Sebum suppression: 14C-acetate label remaining in cultured human sebocytes
Assay type: cell-based
experimental.setup: Homo sapiens, Experiment A; 1 μM test compound alone; read-out: % of Control
Known activity at 1 µM of a selection of compounds
The reply should be a number in %, with the unit left off.

activity at 1 µM measured on `O=C(Nc1ccc(O)cc1)Nc1cccc(C(F)(F)F)c1` = 66.4

activity at 1 µM measured on CC(CCC(=O)N1CCN(c2ccccc2)CC1)C1CCC2=C3CCC4CC(O)CCC4(C)C3CC(O)C21C (stereo not shown) = 88.1

activity at 1 µM measured on Cc1cccc(O)c1NC(=O)OC1CC(C)CCC1C(C)C (stereo not shown) = 70.1

New cases:
activity at 1 µM measured on CC(CCC(=O)NC(=O)Nc1ccccc1Sc1ccccc1CO)C1CCC2=C3CCC4CC(O)CCC4(C)C3CC(O)C21C (stereo not shown) = 68.5
